Cited source for all entries: the supplement of paper PMC12067926

Test system: Sphingomonas 2 (Sphingomonas sp.)
Test: relative growth (AUC of 72 h growth curve relative to DMSO control, dAUC) (ratio); higher = more growth (less inhibition), active = hit call of the paper;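 active = growth AUC significantly below the DMSO wells by Dunnett test; inactive = the rest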
Conditions: 20 µM
The reply should be one of these categories: active, inactive

>>> assigned_label("O=C(Nc1ccccc1-c1ccc(Cl)cc1)c1cccnc1Cl")
"inactive"
>>> assigned_label("Cc1cc(C)c(C2=C(OC(=O)CC(C)(C)C)C3(CCCC3)OC2=O)c(C)c1")
"inactive"
>>> assigned_label("CN/C(=N/CC1CCOC1)N[N+](=O)[O-] (stereo not drawn)")
"inactive"

Task: Answer briefly: the call reported for Cc1cc(C(C#N)c2ccc(Cl)cc2)c(Cl)cc1NC(=O)c1cc(I)cc(I)c1O (stereo not drawn) in this assay.
Output: active

Task: Answer briefly: the call reported for CC[C@H](C)C1O[C@]2(C=C[C@@H]1C)C[C@@H]1C[C@@H](C/C=C(\C)[C@@H](O[C@H]3C[C@H](OC)[C@@H](O[C@H]4C[C@H](OC)[C@H](NC)[C@H](C)O4)[C@H](C)O3)[C@@H](C)/C=C/C=C3\CO[C@@H]4[C@H](O)C(C)=C[C@@H](C(=O)O1)[C@]34O)O2 (stereo partly drawn) in this assay.
Output: active

---

System: Sphingomonas 2 (Sphingomonas sp.)
Experiment: relative growth (AUC of 72 h growth curve relative to DMSO control, dAUC) (ratio); higher = more growth (less inhibition), active = hit call of the paper
Conditions: 20 µM
value kind: relative growth

Consider the following illustrative entries.
>>> obs_value("COC(=O)c1ccccc1S(=O)(=O)NC(=O)Nc1nc(C)nc(OC)n1")
"1.03 (inactive)"
>>> obs_value("Cc1c(COC(=O)[C@@H]2[C@H](/C=C(\\Cl)C(F)(F)F)C2(C)C)cccc1-c1ccccc1 (racemic)")
"1.07 (inactive)"
>>> obs_value("COc1cc(C)c(C(=O)c2c(OC)ccc(Br)c2C)c(OC)c1OC")
"1.04 (inactive)"

// field: relative growth; key: CC1(C)C(C=C(Cl)Cl)C1C(=O)OC(C#N)c1ccc(F)c(Oc2ccccc2)c1 (stereo unspecified) ; value = 1.03 (inactive)

// field: relative growth; key: COCC(=O)N(c1c(C)cccc1C)C(C)C(=O)OC (stereo unspecified) ; value = 1.05 (inactive)

// field: relative growth; key: COP(N)(=O)SC (stereo unspecified) ; value = 0.675 (inactive)

// field: relative growth; key: COC(=O)Nc1nc2ccccc2[nH]1 ; value = 0.732 (inactive)

// field: relative growth; key: CC1(C)[C@H](C(=O)O[C@H](C#N)c2cccc(Oc3ccccc3)c2)[C@@H]1C=C(Br)Br ; value = 1.12 (inactive)

---

Form field: relative growth (one value per entry).
System: Aeromonas 3 (Aeromonas popoffii)
Test: relative growth (AUC of 72 h growth curve relative to DMSO control, dAUC) (ratio); higher = more growth (less inhibition), active = hit call of the paper
Conditions: 20 µM
Enter the number alone.

>>> obs_value("CCOC(=O)CC(SP(=S)(OC)OC)C(=O)OCC (stereo unspecified)")
1.02

// field: relative growth; key: CC1=NNC(=O)N(/N=C/c2cccnc2)C1 ; value = 1.04

// field: relative growth; key: Clc1ccc(C(c2ccc(Cl)cc2)C(Cl)(Cl)Cl)cc1 ; value = 0.973

// field: relative growth; key: N#Cc1nn(-c2c(Cl)cc(C(F)(F)F)cc2Cl)c(N)c1[S+]([O-])C(F)(F)F (stereo unspecified) ; value = 1

// field: relative growth; key: Cc1cc(C)c(C2=C(OC(=O)CC(C)(C)C)C3(CCCC3)OC2=O)c(C)c1 ; value = 1.05

// field: relative growth; key: O=C1C2CC=CCC2C(=O)N1SC(Cl)(Cl)Cl (stereo unspecified) ; value = 0.983

---

System: Paenibacillus 1 (Paenibacillus castaneae)
Experiment: relative growth (AUC of 72 h growth curve relative to DMSO control, dAUC) (ratio); higher = more growth (less inhibition), active = hit call of the paper
Conditions: 20 µM
value kind: relative growth
Enter the number alone.

Consider the following illustrative entries.
>>> obs_value("OC(Cn1cncn1)(c1ccc(F)cc1)c1ccccc1F (centres undefined)")
1.05
>>> obs_value("COc1cc(C)c(C(=O)c2c(OC)ccc(Br)c2C)c(OC)c1OC")
0.965
>>> obs_value("COC(=O)c1ccccc1S(=O)(=O)NC(=O)Nc1nc(C)nc(OC)n1")
1.16

// field: relative growth; key: COc1cc(OC)nc(NC(=O)NS(=O)(=O)c2ncccc2C(=O)N(C)C)n1 ; value = 1.08

---

System: Arthrobacter 3 (Arthrobacter sp.)
Assay: relative growth (AUC of 72 h growth curve relative to DMSO control, dAUC) (ratio); higher = more growth (less inhibition), active = hit call of the paper
Conditions: 20 µM
value kind: relative growth
Enter the number alone.

// field: relative growth; key: COC(=O)N(C(=O)N1CO[C@@]2(C(=O)OC)Cc3cc(Cl)ccc3C2=N1)c1ccc(OC(F)(F)F)cc1 ; value = 1.02

---

Test system: Microbacterium 1 (Microbacterium arborescens)
Experiment: relative growth (AUC of 72 h growth curve relative to DMSO control, dAUC) (ratio); higher = more growth (less inhibition), active = hit call of the paper
Details: 20 µM
Form field: relative growth (one value per entry).
Enter the number alone.

Consider the following illustrative entries.
>>> obs_value("CC(C)N1C(=O)c2ccccc2NS1(=O)=O")
0.977
>>> obs_value("CC(C)CC(C)c1sccc1NC(=O)c1cn(C)nc1C(F)(F)F (configuration not stated)")
0.937
>>> obs_value("CO/C=C(/C(=O)OC)c1ccccc1COc1cccc(C(F)(F)F)n1")
0.997

// field: relative growth; key: OC(Cc1ccccc1Cl)(Cn1nc[nH]c1=S)C1(Cl)CC1 (configuration not stated) ; value = 0.958

// field: relative growth; key: O=[N+]([O-])c1cc(C(F)(F)F)c(Cl)c([N+](=O)[O-])c1Nc1ncc(C(F)(F)F)cc1Cl ; value = 0.928

---

Tested on: Hymenobacter 1 (Hymenobacter glaciei)
Assay: relative growth (AUC of 72 h growth curve relative to DMSO control, dAUC) (ratio); higher = more growth (less inhibition), active = hit call of the paper
Conditions: 20 µM
value kind: relative growth
Enter the number alone.

Consider the following illustrative entries.
>>> obs_value("N#Cc1sc2c(=O)c3ccccc3c(=O)c=2sc1C#N")
0.709
>>> obs_value("CCCSP(=O)(OCC)Oc1ccc(Br)cc1Cl (stereo unspecified)")
0.98
>>> obs_value("CCc1cnc(C2=NC(C)(C(C)C)C(=O)N2)c(C(=O)O)c1 (stereo unspecified)")
1.09
>>> obs_value("CC1(C)C(C=C(Cl)Cl)C1C(=O)OC(C#N)c1cccc(Oc2ccccc2)c1 (stereo unspecified)")
1.08
>>> obs_value("CN(C)C(CSS(=O)(=O)O)CSS(=O)(=O)O")
1.07

The recorded relative growth with Hymenobacter 1 (Hymenobacter glaciei) for CS(=O)(=O)c1ccc(C(=O)C2C(=O)CCCC2=O)c([N+](=O)[O-])c1 was 1.07

---

Test system: Community 7
Experiment: relative growth (AUC of 72 h growth curve relative to DMSO control, dAUC) (ratio); higher = more growth (less inhibition), active = hit call of the paper
Settings: 20 µM
Form field: relative growth (one value per entry).
Enter the number alone.

Consider the following illustrative entries.
>>> obs_value("CC1(C)C(C(=O)OC(C#N)c2cccc(Oc3ccccc3)c2)C1(C)C (stereo not drawn)")
1.09
>>> obs_value("CCCC1COC(Cn2cncn2)(c2ccc(Cl)cc2Cl)O1 (stereo not drawn)")
1.08
>>> obs_value("C#CCOc1ccc(CCNC(=O)C(OCC#C)c2ccc(Cl)cc2)cc1OC (stereo not drawn)")
1

// field: relative growth; key: CSc1nc(NC(C)C)nc(NC(C)C)n1 ; value = 1.02

// field: relative growth; key: N#CCNC(=O)c1cnccc1C(F)(F)F ; value = 1.01

// field: relative growth; key: CC(C)OC(=O)Nc1cccc(Cl)c1 ; value = 1.07

// field: relative growth; key: Cc1ccc(/N=C/N(C)/C=N/c2ccc(C)cc2C)c(C)c1 ; value = 1.16

// field: relative growth; key: CNC(=O)CSP(=S)(OC)OC ; value = 1.12

// field: relative growth; key: CCCSP(=O)(OCC)Oc1ccc(Br)cc1Cl (stereo not drawn) ; value = 1.01

// field: relative growth; key: Cc1nnc(-c2ccccc2)c(=O)n1N ; value = 1.12

// field: relative growth; key: COCC(C)N(C(=O)CCl)c1c(C)csc1C (stereo not drawn) ; value = 0.996

// field: relative growth; key: CCOC(=O)OC1=C(c2cc(C)ccc2C)C(=O)N[C@]12CC[C@@H](OC)CC2 ; value = 1.03

// field: relative growth; key: CNC(=O)c1cc(C#N)cc(C)c1NC(=O)c1cc(Br)nn1-c1ncccc1Cl ; value = 1.05
